Record form. Attribute: log10(IC50). Fill in for each entry.
- Tested on: RAW264.7
- Test Summary: Antiinflammatory activity in mouse RAW264.7 cells assessed as inhibition of LPS-induced NO production pretreated for 2 hrs followed by LPS stimulation measured after 24 hrs by Griess assay
- Format: functional, cell-based
Please note: log10 values; quantity IC50; unit µM.

INSERT INTO measurements (compound, readout_name, value_observed) VALUES
  ('CC1=C[C@@H](O/C=C2/C(=O)O[C@H]3c4ccccc4C[C@@H]23)OC1=O', 'log10(IC50)', 0.55),
  ('CC1C[C@@H](O/C=C2/C(=O)O[C@H]3c4ccccc4C[C@@H]23)OC1=O (stereo not given in full)', 'log10(IC50)', 1.55),
  ('CC1=C[C@H](O/C=C2/C(=O)O[C@@H]3c4ccccc4C[C@H]23)OC1=O', 'log10(IC50)', 0.50),
  ('CC1C[C@H](O/C=C2/C(=O)OC3c4ccccc4CC23)OC1=O (stereo not given in full)', 'log10(IC50)', 1.62);

// switching to the query compound
For the compound CC1=C[C@H](O/C=C2/C(=O)OC3c4ccccc4CC23)OC1=O (stereo not given in full) , give its measured log10(IC50) value.
0.61

----------
- Tested on: RAW264.7
- Test Summary: Antiinflammatory activity in mouse RAW264.7 cells assessed as inhibition of LPS-induced NO production pretreated for 2 hrs followed by LPS stimulation measured after 24 hrs by Griess assay
- Type: functional, cell-based
Readout Name: IC50 (µM)
Numbers only, in µM.

Batch of 8 compounds: report IC50 for each.
1. CC1=C[C@H](O/C=C2/C(=O)O[C@H]3c4ccccc4C[C@@H]23)OC1=O
2. CC1C[C@H](O/C=C2/C(=O)O[C@H]3c4ccccc4C[C@@H]23)OC1=O (stereo partly drawn)
3. CC1C[C@@H](O/C=C2/C(=O)O[C@@H]3c4ccccc4C[C@H]23)OC1=O (stereo partly drawn)
4. CC1C[C@H](O/C=C2/C(=O)O[C@@H]3c4ccccc4C[C@H]23)OC1=O (stereo partly drawn)
5. C[C@@H]1C[C@H]2[C@@H]3CCC4=CC(=O)C=C[C@]4(C)[C@@]3(F)[C@@H](O)C[C@]2(C)[C@@]1(O)C(=O)CO
6. CC1C[C@@H](O/C=C2/C(=O)OC3c4ccccc4CC23)OC1=O (stereo partly drawn)
7. CC1=C[C@@H](O/C=C2/C(=O)OC3c4ccccc4CC23)OC1=O (stereo partly drawn)
8. CC1=C[C@@H](O/C=C2/C(=O)O[C@@H]3c4ccccc4C[C@H]23)OC1=O

6.34
60.5
64.6
32.3
2.66
44.5
4.32
6.62
